Numbers sourced from patent US20250066503A1.

Reported Kd values follow for various binders
- target.desc: T1, human GPC3 (human, UniProt P51654 25-563)
- T1 construct: range 25-563; soluble analyte; also called soluble human GPC3; glypican 3
- assay.details: SPR
Field: numeric (nM). Do not append units.

GCH062-G1dh/none-Hi-Kn010G3/L0000-k0 (antibody, V domains shown, one-arm) VH: QVQLVQSGAEVKKPGASVKVSCKASGYTFTDYEMHWIRQPPGQGLEWMGAIDGKTPDTAYSQKFKGRVTLTADKSTSTAYMELSSLTSEDTAVYYCTRFYSYTYWGQGTLVTVSS VL: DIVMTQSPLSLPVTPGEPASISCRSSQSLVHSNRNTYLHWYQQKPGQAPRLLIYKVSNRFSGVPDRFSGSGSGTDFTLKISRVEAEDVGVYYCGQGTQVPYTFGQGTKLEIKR ... 3.73

// next item, Kd requested
Could you tell me which Kd is on file for H0610-G1dh/none-Hi-Kn010G3/L0186-k0 (antibody, V domains shown, one-arm) VH: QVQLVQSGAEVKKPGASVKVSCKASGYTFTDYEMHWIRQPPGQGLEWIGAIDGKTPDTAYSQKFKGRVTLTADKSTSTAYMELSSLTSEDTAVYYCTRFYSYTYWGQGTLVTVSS VL: DIVMTQSPLSLPVTPGEPASISCRSSQSLVHSNRNTYLHWYQQKPGQAPRLLIYKVSNRFSGVPDRFSGSGSGTDFTLKISRVEAEDVGVYYCGQGTQWPYTFGQGTKLEIK ?
1.08
